# TARGET: UniProtKB P04150
# Sequence (P04150 1-777): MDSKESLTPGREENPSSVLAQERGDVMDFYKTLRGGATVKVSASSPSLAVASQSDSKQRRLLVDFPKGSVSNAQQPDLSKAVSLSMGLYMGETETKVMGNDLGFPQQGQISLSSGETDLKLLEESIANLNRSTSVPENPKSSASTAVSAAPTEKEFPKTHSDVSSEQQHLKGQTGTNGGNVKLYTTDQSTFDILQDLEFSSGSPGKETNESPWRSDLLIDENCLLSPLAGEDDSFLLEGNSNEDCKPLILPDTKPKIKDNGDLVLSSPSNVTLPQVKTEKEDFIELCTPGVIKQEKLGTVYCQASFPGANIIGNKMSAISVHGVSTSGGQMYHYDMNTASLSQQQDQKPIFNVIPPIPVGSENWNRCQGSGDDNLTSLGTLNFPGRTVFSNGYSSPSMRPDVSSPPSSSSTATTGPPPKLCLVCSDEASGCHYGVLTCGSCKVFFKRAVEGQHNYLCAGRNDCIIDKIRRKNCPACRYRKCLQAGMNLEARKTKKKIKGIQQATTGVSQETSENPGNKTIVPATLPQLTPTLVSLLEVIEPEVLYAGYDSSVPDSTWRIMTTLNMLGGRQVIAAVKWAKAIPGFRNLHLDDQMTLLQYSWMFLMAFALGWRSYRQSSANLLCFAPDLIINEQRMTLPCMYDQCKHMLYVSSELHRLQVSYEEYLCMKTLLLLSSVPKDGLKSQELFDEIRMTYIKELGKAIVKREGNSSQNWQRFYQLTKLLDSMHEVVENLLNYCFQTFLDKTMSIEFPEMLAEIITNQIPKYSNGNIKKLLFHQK
# TEST_NAME: Transrepression Assay (GITAR), TNFα-β-lactamase reporter gene in U937 cells
# Assay type: cell-based
# Design: U937 cells contain an endogenous glucocorticoid receptor (GR); endogenous in cells; host or cells: U937 cells stably transfected with the TNF-α promoter/β-lactamase reporter only
# SETUP_CONDITIONS: U-937; Table 1; U937 cells; activity repressed by 100 nM dexamethasone = 100%; read-out: Transrepression U937 Cells GITAR Emax (%)
Rule: Emax below 70% gives Y, anything at or above gives N.

## Task # check: Emax < 70% for C[C@]12Cc3cnn(-c4ccc(F)cc4)c3C=C1CC[C@@]2(O)CCc1ccccc1N1CCC1=O [Example 11]
## Result Y

## Task # check: Emax < 70% for CC(CNC(=O)c1ccccc1CC[C@]1(O)CCC2=Cc3c(cnn3-c3ccc(F)cc3)C[C@@]21C)C(F)(F)F (stereo partly shown) [Example 31]
## Result Y

## Task # check: Emax < 70% for CC(C)(C)NC(=O)c1c(F)cccc1CC[C@]1(O)CCC2=Cc3c(cnn3-c3ccc(F)cc3)C[C@@]21C [Example 59]
## Result N

## Task # check: Emax < 70% for CC(C)S(=O)(=O)NCc1c(F)cccc1CC[C@]1(O)CCC2=Cc3c(cnn3-c3ccc(F)cc3)C[C@@]21C [Example 83]
## Result Y

## Task # check: Emax < 70% for C[C@]12Cc3cnn(-c4ccc(F)cc4)c3C=C1CC[C@@]2(O)CCc1ccccc1CNS(=O)(=O)C1CC1 [Example 5]
## Result Y

## Task # check: Emax < 70% for C[C@]12Cc3cnn(-c4ccc(F)cc4)c3C=C1CC[C@@]2(O)CCc1ccc(F)cc1C(N)=O [Example 159]
## Result N

## Task # check: Emax < 70% for CNC(=O)Cc1ccccc1CC[C@]1(O)CCC2=Cc3c(cnn3-c3ccc(F)cc3)C[C@@]21C [Example 23]
## Result N

## Task # check: Emax < 70% for C[C@]12Cc3cnn(-c4ccc(F)c(F)c4)c3C=C1CC[C@@]2(O)CCc1cccc(F)c1C(N)=O [Example 168]
## Result N

## Task # check: Emax < 70% for C[C@]12Cc3cnn(-c4ccc(F)cc4)c3C=C1CC[C@@]2(O)CCc1ccc(Cl)cc1C(N)=O [Example 170]
## Result Y

## Task # check: Emax < 70% for CCNC(=O)c1ccccc1CC[C@]1(O)CCC2=Cc3c(cnn3-c3ccc(F)c(F)c3)C[C@@]21C [Example 51]
## Result N

## Task # check: Emax < 70% for C=C(C)CNC(=O)c1c(F)cccc1CC[C@]1(O)CCC2=Cc3c(cnn3-c3ccc(F)cc3)C[C@@]21C [Example 44]
## Result Y

## Task # check: Emax < 70% for C=C(C)CNC(=O)c1ccccc1CC[C@]1(O)CCC2=Cc3c(cnn3-c3ccc(F)cc3)C[C@@]21C [Example 32]
## Result Y

====

# TARGET: UniProtKB P04150
# Sequence (P04150 1-777): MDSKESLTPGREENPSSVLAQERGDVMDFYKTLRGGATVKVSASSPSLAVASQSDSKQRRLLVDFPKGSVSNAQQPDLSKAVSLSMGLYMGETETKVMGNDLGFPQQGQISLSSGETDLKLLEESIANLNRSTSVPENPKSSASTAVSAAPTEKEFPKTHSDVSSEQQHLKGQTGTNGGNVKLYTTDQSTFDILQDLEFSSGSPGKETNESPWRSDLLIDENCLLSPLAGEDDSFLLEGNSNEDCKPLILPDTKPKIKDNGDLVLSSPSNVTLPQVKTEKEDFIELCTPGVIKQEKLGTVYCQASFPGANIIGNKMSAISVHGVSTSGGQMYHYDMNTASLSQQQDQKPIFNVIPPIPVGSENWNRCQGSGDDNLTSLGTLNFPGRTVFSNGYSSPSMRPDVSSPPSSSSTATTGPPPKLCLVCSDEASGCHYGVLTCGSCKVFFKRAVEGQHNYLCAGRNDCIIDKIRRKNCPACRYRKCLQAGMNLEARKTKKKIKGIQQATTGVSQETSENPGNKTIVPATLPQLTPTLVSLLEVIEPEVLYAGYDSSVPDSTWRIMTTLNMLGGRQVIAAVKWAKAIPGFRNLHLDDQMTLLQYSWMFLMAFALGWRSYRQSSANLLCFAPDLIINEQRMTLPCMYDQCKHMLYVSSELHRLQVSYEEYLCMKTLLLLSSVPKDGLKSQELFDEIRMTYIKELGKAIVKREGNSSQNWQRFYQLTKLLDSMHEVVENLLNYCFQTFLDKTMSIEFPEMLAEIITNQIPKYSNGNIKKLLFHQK
# TEST_NAME: Trans-Activation Modulation of Glucocorticoid Receptor (GRAMMER), MMTV-LUC reporter gene
# Format: cell-based
# Parameters: endogenous in cells
# SETUP_CONDITIONS: A549; read-out: Transactivation A549 Cells GRAMMER Emax (%)
ASSAY_METRIC: Emax
Please answer in the form of a number followed by its unit of measurement.

C[C@]12Cc3cnn(-c4ccc(F)c(F)c4)c3C=C1CC[C@@]2(O)CCc1ccccc1C(N)=O 41%
CCNC(=O)c1ccccc1CC[C@]1(O)CCC2=Cc3c(cnn3-c3ccc(F)c(F)c3)C[C@@]21C 30%
C[C@]12Cc3cnn(-c4ccc(F)cc4)c3C=C1CC[C@@]2(O)CCc1cccc(F)c1CNS(=O)(=O)C(Cl)Cl 19%

# next compound below
## Task Report Emax for C[C@H](CNC(=O)c1ccccc1CC[C@]1(O)CCC2=Cc3c(cnn3-c3ccc(F)cc3)C[C@@]21C)C(F)(F)F please.
## Result 18%

====

# TARGET: glucocorticoid receptor (GR) (Homo sapiens, UniProt P04150)
# Construct: endogenous in cells; host or cells: HeLa (ATCC) cell lysate supernatant
# Sequence (P04150 1-777): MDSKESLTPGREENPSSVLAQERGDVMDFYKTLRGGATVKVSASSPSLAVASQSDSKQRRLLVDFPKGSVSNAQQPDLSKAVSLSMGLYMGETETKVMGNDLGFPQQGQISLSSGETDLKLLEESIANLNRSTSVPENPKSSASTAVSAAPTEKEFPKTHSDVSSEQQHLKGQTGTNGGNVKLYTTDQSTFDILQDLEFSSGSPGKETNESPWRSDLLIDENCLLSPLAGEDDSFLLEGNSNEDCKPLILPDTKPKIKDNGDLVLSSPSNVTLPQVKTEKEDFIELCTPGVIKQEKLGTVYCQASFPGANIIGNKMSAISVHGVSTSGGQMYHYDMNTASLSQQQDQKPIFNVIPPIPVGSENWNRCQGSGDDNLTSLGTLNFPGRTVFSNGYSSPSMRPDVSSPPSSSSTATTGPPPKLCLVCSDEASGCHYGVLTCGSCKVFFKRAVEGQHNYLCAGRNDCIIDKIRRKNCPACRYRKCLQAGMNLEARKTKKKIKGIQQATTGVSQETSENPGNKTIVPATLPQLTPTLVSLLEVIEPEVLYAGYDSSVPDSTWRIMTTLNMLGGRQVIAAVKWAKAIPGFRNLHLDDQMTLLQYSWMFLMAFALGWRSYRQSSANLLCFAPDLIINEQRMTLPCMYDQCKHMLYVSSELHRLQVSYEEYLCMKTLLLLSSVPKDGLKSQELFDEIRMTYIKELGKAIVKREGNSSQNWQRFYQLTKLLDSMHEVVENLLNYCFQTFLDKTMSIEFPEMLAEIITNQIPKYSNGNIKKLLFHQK
# TEST_NAME: Ligand binding assay (GR BIND), 3H-dexamethasone displacement, HeLa cell lysate
# SETUP_CONDITIONS: Table 1; HeLa cell lysate, 3H-DEX
# Method: Binding Buffer: TEGM (10 mM Tris-HCl, 1 mM EDTA, 10% glycerol, 1 mM beta-mercaptoethanol, 10 mM Sodium Molybdate, pH 7.2) 50% HAP Slurry: Calbiochem Hydroxylapatite, Fast Flow, in 10 mM Tris, pH 8.0 and 1 mM EDTA. […] Phenol red-free Trypsin-EDTA is diluted in the same PBS 1:10. […] The cells are counted at this point, then diluted to the appropriate concentration and split into flasks or dishes for further culturing (Usually 1:3 to 1:6 dilution). […]
For each record, write down the corresponding Ki.
Please answer in the form of a number followed by its unit of measurement.

Worked set:
MOLECULE	DATA_VALUE
C[C@]12Cc3cnn(-c4ccc(F)cc4)c3C=C1CC[C@@]2(O)CCc1ccccc1C(F)C(N)=O (single isomer, unassigned)	2.44 nM
C[C@]12Cc3cnn(-c4ccc(F)cc4)c3C=C1CC[C@@]2(O)CCc1ccccc1C(=O)N1CC(=O)C1	2.9 nM
C[C@]12Cc3cnn(-c4ccc(F)c(F)c4)c3C=C1CC[C@@]2(O)CCc1ccccc1C(N)=O	6.59 nM

## Task Report Ki for COC(=O)C(C)(C)NC(=O)c1c(F)cccc1CC[C@]1(O)CCC2=Cc3c(cnn3-c3ccc(F)cc3)C[C@@]21C please.
## Result 0.83 nM

Origin of values: patent US8119681B2
